# TEST_DESCRIPTION: Half life in human blood
# Assay type: ADME, tissue-based
MEASURED_QUANTITY: half-life

## Task Given CCOC(=O)Oc1cccc(Nc2cc(Nc3ccccc3Cl)c(C(N)=O)cn2)n1 , state its recorded half-life.
## Result ~4 min

---

# TEST_DESCRIPTION: Stability in human whole blood assessed as half life at 1 uM incubated upto 8 hrs by LC-MS/MS analysis
# Format: ADME, tissue-based
half-life at 1 µM overview
Give the quantity in min, number only.

Use these answered entries as a reference point.
* COc1ccccc1Nc1cc(Nc2ccc(CC(=O)O[C@H]3CCOC3)cn2)ncc1C(N)=O | 5
* COC(=O)Cc1ccc(Nc2cc(Nc3ccccc3Cl)c(C(N)=O)cn2)nc1 | 5
* CCOC(=O)Cc1ccc(Nc2cc(Nc3ccccc3Cl)c(C(N)=O)cn2)nc1 | 7
* COC[C@@H](C)OC(=O)Cc1ccc(Nc2cc(Nc3ccccc3OC)c(C(N)=O)cn2)nc1 | 6
* CCOC(=O)Cc1ccc(Nc2cc(Nc3ccccc3OC)c(C(N)=O)cn2)nc1 | 5

## Task Suppose we examine the molecule CCOC(=O)Oc1cccc(Nc2cc(Nc3ccccc3Cl)c(C(N)=O)cn2)n1 ; what half-life at 1 µM value has been reported?
## Result 4

## Task Then what about the molecule CC(C)OC(=O)Cc1ccc(Nc2cc(Nc3ccccc3Cl)c(C(N)=O)cn2)nc1 ?
## Result 65

---

# ASSAYED_TARGET: Eukaryotic translation initiation factor 2-alpha kinase 3 (Homo sapiens)
# Sequence (Q9NZJ5 whole entry): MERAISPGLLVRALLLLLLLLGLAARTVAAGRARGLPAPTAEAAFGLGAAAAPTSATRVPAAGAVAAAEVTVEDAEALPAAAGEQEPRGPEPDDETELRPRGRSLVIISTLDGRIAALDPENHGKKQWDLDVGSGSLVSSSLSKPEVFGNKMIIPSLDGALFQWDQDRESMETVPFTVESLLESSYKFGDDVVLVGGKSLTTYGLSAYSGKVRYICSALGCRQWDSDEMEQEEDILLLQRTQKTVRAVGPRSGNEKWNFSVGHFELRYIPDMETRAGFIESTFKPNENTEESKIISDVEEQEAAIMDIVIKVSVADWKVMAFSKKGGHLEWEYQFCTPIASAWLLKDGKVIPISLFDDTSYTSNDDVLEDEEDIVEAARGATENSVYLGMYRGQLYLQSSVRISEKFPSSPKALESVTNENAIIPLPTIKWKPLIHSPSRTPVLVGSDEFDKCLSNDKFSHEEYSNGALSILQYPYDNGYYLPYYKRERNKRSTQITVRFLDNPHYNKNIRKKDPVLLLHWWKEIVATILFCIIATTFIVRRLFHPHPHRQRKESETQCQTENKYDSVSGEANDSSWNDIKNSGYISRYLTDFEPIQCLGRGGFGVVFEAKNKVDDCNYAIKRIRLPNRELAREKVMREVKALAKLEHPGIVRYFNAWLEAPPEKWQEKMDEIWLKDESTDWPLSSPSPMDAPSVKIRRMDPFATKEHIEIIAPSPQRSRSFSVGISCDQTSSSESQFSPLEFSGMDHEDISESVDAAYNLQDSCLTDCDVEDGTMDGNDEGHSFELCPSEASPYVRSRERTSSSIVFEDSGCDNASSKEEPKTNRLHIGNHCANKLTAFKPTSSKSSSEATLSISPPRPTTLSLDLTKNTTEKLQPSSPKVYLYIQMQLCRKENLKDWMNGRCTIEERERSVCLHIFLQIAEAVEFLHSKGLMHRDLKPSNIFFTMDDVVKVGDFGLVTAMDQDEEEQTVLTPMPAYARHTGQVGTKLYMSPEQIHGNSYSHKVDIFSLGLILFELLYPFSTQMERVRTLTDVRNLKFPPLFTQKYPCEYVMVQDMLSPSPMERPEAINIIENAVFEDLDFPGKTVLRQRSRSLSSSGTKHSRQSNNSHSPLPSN
Catalogue of IC50 values

• COc1ccccc1Nc1cc(Nc2ccc(CC(=O)O)cn2)ncc1C(N)=O = < 100 nM

--- query ---
## Task GET /values?readout=IC50&item= COC[C@@H](C)OC(=O)Cc1ccc(Nc2cc(Nc3ccccc3OC)c(C(N)=O)cn2)nc1
## Result < 100 nM

---

// endpoint pIC50 / system Tyrosine-protein kinase JAK3 (Homo sapiens, UniProt P52333)
# pIC50 is unitless: minus log10 of the molar concentration; print number only

Examples with answers:
- CCOC(=O)Cc1ccc(Nc2cc(Nc3ccccc3OC)c(C(N)=O)cn2)nc1: 7.25
- CCOC(=O)Cc1ccc(Nc2cc(Nc3ccccc3Cl)c(C(N)=O)cn2)nc1: 7.74
- COC[C@@H](C)OC(=O)Cc1ccc(Nc2cc(Nc3ccccc3OC)c(C(N)=O)cn2)nc1: 8.40

## Task Fill in: pIC50 of COc1ccccc1Nc1cc(Nc2ccc(CC(=O)O[C@H]3CCOC3)cn2)ncc1C(N)=O is ___
## Result 8.30

## Task Then this molecule: COc1ccccc1Nc1cc(Nc2ccc(CC(=O)O[C@@H]3CCOC3)cn2)ncc1C(N)=O
## Result 8.52

## Task Now this one: COCCOC(=O)Cc1ccc(Nc2cc(Nc3ccccc3OC)c(C(N)=O)cn2)nc1
## Result 8.40

## Task # iterate: COC(=O)Cc1ccc(Nc2cc(Nc3ccccc3Cl)c(C(N)=O)cn2)nc1
## Result 7.89

## Task Ok, now CC(C)OC(=O)Cc1ccc(Nc2cc(Nc3ccccc3Cl)c(C(N)=O)cn2)nc1
## Result 7.55

## Task Now consider CCOC(=O)c1ccc(Nc2cc(Nc3ccccc3Cl)c(C(N)=O)cn2)nc1 and answer again.
## Result 6.77

## Task Next up: CCOC(=O)CCc1ccc(Nc2cc(Nc3ccccc3Cl)c(C(N)=O)cn2)nc1
## Result 7.60

## Task # iterate: CCOC(=O)COc1ccc(Nc2cc(Nc3ccccc3Cl)c(C(N)=O)cn2)nc1
## Result 7.16

## Task Query COC[C@H](C)OC(=O)Cc1ccc(Nc2cc(Nc3ccccc3OC)c(C(N)=O)cn2)nc1 next
## Result 9.00

---

# ASSAYED_TARGET: JAK2/JAK1 (Homo sapiens, UniProt O60674+P23458)
# Sequence (P23458 whole entry): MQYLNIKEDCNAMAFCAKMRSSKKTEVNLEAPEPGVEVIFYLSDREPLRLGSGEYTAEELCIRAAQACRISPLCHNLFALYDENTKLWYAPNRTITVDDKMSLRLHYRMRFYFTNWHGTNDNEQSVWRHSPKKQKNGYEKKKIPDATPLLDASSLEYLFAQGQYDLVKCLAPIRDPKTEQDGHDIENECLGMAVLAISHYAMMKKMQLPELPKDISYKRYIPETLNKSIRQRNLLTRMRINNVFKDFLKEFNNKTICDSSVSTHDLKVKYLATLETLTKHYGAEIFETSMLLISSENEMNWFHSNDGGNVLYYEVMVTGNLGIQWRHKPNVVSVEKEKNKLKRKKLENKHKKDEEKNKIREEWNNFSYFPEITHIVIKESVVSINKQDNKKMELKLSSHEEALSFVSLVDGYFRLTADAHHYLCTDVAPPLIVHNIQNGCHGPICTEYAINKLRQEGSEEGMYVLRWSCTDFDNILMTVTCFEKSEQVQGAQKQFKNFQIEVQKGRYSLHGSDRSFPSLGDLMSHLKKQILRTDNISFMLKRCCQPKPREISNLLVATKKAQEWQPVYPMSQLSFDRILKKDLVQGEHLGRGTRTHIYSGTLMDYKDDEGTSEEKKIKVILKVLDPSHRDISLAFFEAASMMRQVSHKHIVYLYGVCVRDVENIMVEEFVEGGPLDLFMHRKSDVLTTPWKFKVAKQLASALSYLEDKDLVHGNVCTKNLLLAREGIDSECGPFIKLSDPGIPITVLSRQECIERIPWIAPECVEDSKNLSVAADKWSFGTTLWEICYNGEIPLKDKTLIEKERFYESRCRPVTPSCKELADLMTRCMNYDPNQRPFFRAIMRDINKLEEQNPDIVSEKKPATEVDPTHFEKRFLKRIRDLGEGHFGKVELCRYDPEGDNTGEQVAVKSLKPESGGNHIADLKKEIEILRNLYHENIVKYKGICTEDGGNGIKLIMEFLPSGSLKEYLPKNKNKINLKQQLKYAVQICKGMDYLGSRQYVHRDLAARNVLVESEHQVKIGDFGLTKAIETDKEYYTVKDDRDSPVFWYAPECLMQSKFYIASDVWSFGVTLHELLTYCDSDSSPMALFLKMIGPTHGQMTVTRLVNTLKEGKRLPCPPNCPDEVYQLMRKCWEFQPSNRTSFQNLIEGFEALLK
# Sequence (O60674 whole entry): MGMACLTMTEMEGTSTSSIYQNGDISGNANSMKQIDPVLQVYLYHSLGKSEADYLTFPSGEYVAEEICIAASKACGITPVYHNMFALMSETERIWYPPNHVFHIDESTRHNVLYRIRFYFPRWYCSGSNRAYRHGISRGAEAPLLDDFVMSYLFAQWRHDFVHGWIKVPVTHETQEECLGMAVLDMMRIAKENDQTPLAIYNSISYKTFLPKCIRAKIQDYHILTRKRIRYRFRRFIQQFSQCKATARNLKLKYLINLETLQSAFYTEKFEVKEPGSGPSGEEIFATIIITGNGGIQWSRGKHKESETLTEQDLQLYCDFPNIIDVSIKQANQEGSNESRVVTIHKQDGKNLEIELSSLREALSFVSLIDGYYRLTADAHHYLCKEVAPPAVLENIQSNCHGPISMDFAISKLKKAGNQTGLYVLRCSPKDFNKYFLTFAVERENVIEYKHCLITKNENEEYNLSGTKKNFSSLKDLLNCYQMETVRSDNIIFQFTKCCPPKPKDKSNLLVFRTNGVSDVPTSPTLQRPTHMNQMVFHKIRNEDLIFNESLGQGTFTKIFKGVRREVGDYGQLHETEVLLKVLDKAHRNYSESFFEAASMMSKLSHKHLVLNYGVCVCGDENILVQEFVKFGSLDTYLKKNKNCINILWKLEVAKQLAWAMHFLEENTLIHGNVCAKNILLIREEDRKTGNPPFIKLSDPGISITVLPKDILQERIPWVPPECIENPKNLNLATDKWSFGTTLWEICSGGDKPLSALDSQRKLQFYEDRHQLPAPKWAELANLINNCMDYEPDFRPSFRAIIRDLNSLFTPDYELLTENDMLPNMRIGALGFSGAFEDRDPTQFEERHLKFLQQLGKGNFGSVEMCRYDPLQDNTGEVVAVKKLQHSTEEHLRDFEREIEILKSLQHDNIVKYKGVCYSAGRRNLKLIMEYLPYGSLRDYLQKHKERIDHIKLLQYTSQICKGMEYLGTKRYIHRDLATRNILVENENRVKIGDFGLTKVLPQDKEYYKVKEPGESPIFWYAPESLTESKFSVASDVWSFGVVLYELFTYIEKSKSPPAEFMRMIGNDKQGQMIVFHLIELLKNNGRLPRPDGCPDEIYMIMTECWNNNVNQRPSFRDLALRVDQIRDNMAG
# TEST_DESCRIPTION: Inhibition of JAK1/2-mediated STAT1 phosphorylation in human M07E cells preincubated for 30 mins followed by IFN-alpha stimulation measured after 15 mins by flow cytometry
pIC50: −log10 of the molar value.
Quick rule for you: pIC50 at 7 or higher means Satisfied, lower means Not satisfied.

Observe how each entry below is paired with its result.
- COC[C@H](C)OC(=O)Cc1ccc(Nc2cc(Nc3ccccc3OC)c(C(N)=O)cn2)nc1: Satisfied
- COc1ccccc1Nc1cc(Nc2ccc(CC(=O)O[C@@H]3CCOC3)cn2)ncc1C(N)=O: Satisfied
- CCOC(=O)c1ccc(Nc2cc(Nc3ccccc3Cl)c(C(N)=O)cn2)nc1: Not satisfied
- NC(=O)c1cnc(Nc2cccc(O)n2)cc1Nc1ccccc1Cl: Not satisfied
- COCCOC(=O)Cc1ccc(Nc2cc(Nc3ccccc3OC)c(C(N)=O)cn2)nc1: Satisfied

Please look at the following molecule next.
## Task Test whether the molecule NC(=O)c1cnc(Nc2ccc(CC(=O)O)cn2)cc1Nc1ccccc1Cl records pIC50 of 7 or higher.
## Result Not satisfied

---

# ASSAYED_TARGET: JAK3/JAK1 (Homo sapiens, UniProt P23458+P52333)
# Sequence (P52333 whole entry, one chain of several): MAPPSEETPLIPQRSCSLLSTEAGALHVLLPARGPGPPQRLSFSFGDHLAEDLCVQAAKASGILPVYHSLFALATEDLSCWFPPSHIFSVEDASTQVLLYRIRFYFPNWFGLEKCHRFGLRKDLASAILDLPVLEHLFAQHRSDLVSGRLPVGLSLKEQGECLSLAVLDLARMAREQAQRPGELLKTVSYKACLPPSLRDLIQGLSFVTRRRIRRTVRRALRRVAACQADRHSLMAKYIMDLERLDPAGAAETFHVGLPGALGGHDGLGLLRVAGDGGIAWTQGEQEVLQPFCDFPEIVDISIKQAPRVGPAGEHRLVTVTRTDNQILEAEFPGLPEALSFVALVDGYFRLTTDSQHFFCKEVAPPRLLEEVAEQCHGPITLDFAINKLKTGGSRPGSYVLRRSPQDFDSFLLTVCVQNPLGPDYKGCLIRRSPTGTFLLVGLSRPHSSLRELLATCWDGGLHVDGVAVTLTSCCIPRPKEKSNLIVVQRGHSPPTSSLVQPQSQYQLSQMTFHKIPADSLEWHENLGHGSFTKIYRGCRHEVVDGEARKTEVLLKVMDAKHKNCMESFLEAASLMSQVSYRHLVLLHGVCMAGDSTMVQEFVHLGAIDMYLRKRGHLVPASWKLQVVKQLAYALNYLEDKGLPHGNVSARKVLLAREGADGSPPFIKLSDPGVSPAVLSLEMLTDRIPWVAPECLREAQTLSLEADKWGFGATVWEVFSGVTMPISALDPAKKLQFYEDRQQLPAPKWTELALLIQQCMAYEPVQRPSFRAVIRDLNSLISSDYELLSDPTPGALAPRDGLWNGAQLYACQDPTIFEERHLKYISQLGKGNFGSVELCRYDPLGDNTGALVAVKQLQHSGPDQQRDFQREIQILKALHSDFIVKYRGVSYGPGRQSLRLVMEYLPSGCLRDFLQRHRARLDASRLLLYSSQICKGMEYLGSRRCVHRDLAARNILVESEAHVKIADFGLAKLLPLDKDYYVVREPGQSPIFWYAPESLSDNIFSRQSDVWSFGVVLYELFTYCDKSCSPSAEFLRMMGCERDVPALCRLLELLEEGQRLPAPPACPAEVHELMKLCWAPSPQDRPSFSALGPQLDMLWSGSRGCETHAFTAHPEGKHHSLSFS
# TEST_DESCRIPTION: Inhibition of JAK1/3-mediated STAT5 phosphorylation in human whole blood incubated for 30 mins followed by IL-2 addition measured after 15 mins by flow cytometry
# Assay type: tissue-based
MEASURED_QUANTITY: log10 IC50 (log10 of the value in µM)
Hello, just confirming the data are log10 of IC50 with units of µM.

Illustrative cases are given below, each with its answer.
* CCOC(=O)COc1ccc(Nc2cc(Nc3ccccc3Cl)c(C(N)=O)cn2)nc1 | 0.88
* CC(C)OC(=O)Cc1ccc(Nc2cc(Nc3ccccc3Cl)c(C(N)=O)cn2)nc1 | 0.08
* CCOC(=O)Cc1ccc(Nc2cc(Nc3ccccc3OC)c(C(N)=O)cn2)nc1 | 1.01
* COC[C@@H](C)OC(=O)Cc1ccc(Nc2cc(Nc3ccccc3OC)c(C(N)=O)cn2)nc1 | 1.17
* CCOC(=O)Cc1ccc(Nc2cc(Nc3ccccc3Cl)c(C(N)=O)cn2)nc1 | 1.09

## Task Kindly state the measured log10 IC50 obtained for COC(=O)Cc1ccc(Nc2cc(Nc3ccccc3Cl)c(C(N)=O)cn2)nc1 with JAK3/JAK1 (Homo sapiens, UniProt P23458+P52333).
## Result 0.89

## Task Entry to check: CCOC(=O)c1ccc(Nc2cc(Nc3ccccc3Cl)c(C(N)=O)cn2)nc1
## Result 1.01

## Task Let us now turn to COc1ccccc1Nc1cc(Nc2ccc(CC(=O)O[C@H]3CCOC3)cn2)ncc1C(N)=O
## Result 1.20

## Task Repeat for the following compound: CCOC(=O)CCc1ccc(Nc2cc(Nc3ccccc3Cl)c(C(N)=O)cn2)nc1
## Result 0.40
